molecules and their reported Emax
Biological target: human MC4R (Homo sapiens, UniProt P32245)
Construct: host or cells: HEK-293 cells stably expressing the GScAMP22F split-luciferase cAMP sensor and hMC4R, G418 selection
Sequence (P32245 whole entry): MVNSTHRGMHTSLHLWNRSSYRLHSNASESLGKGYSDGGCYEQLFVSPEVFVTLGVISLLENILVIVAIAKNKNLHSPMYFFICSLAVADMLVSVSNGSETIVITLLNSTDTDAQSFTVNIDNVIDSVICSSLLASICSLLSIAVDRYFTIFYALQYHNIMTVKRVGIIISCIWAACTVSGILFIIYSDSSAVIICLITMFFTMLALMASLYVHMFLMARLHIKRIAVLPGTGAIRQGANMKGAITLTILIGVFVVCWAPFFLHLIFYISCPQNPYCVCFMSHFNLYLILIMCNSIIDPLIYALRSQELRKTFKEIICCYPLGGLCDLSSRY
Test: split-luciferase cAMP sensor assay, agonist mode (measurement window 1), hMC4R
Format: cell-based
Conditions: % maximal activation, agonist mode; read-out: MC4R cAMP % max activation
Positions of bridges follow the written chain, without caps; N, C: chain ends. Non-standard residues stand in square brackets, D forms with d. Residues, ends and D or L forms follow the SMILES beside them. Nle = CCCC[C@H](N)C(=O)O
Kindly answer with a numeric value in %, unit omitted.

Known results for molecules:
CC(=O)N[C@@H](CCCNC(=N)N)C(=O)N[C@H]1CSSC[C@@H](C(N)=O)NC(=O)[C@H](Cc2c[nH]c3ccccc23)NC(=O)[C@H](CCCNC(=N)N)NC(=O)[C@@H](Cc2ccccc2)NC(=O)[C@H](Cc2c[nH]cn2)NC(=O)C(C)(C)NC1=O [CTX-1291, Arg-cyclo(Cys-Aib-His-D-Phe-Arg-Trp-Cys)] | 98
CCCC[C@H](NC(=O)[C@H](CCCNC(=N)N)NC(C)=O)C(=O)N[C@H]1CSSC[C@@H](C(N)=O)NC(=O)[C@H](Cc2ccccc2)NC(=O)[C@H](CCCNC(=N)N)NC(=O)[C@@H](Cc2ccc(OC)cc2)NC(=O)[C@H](CCCNC(=N)N)NC1=O [CTX-1624] (Ac-R[Nle]CR[dY](Me)RFC-NH2; disulfide 3-8 (inferred)) | 83

With those in mind, consider the next molecule.
Quick check: Emax of CC(=O)N[C@@H](CCCNC(=N)N)C(=O)N[C@H]1CSSC[C@@H](C(N)=O)NC(=O)[C@H](Cc2c[nH]c3ccccc23)NC(=O)[C@H](CCCNC(=N)N)NC(=O)[C@@H](Cc2ccccc2)NC(=O)[C@H](CCCNC(=N)N)NC(=O)CNC1=O [CTX-1293, Arg-cyclo(Cys-Gly-Arg-D-Phe-Arg-Trp-Cys)] (Ac-RCGR[dF]RWC-NH2; disulfide 2-8) ? 87

---

compounds and their reported MC4R selectivity vs MC3R
Target: human MC4R (Homo sapiens)
Construct: host or cells: HEK-293 cells stably expressing the GScAMP22F split-luciferase cAMP sensor and hMC4R, G418 selection
Assay: split-luciferase cAMP sensor assay, agonist mode (measurement window 1), hMC4R
Type: cell-based
Positions of bridges follow the written chain, without caps; N, C: chain ends. Non-standard residues stand in square brackets, D forms with d. Residues, ends and D or L forms follow the SMILES beside them. dPhe(4-Br) = N[C@H](Cc1ccc(Br)cc1)C(=O)O

CC(=O)N[C@H]1CSSC[C@@H](C(N)=O)NC(=O)[C@H](Cc2ccccc2)NC(=O)[C@H](CCCNC(=N)N)NC(=O)[C@@H](Cc2ccc(Br)cc2)NC(=O)[C@H](CCCNC(=N)N)NC(=O)CNC1=O [CTX-1640] (Ac-CGR[dPhe(4-Br)]RFC-NH2; disulfide 1-7 (inferred)) | 3.09

With those in mind, consider the next compound.
Quick check: MC4R selectivity vs MC3R of COc1ccc(C[C@H]2NC(=O)[C@H](CCCNC(=N)N)NC(=O)CNC(=O)[C@@H](NC(C)=O)CSSC[C@@H](C(N)=O)NC(=O)[C@H](Cc3ccccc3)NC(=O)[C@H](CCCNC(=N)N)NC2=O)cc1 [CTX-1641] (Ac-CGR[dY](Me)RFC-NH2; disulfide 1-7) ? 1.18
